tested on: MDA-MB-231; experiment: cell viability relative to vehicle unstimulated control (fraction); higher = more viable cells; details: pre-treatment time: 18 h then 24 h IFNg/TNF
PROPERTY_NAME: cell viability

[[record]]
compound = "CC(=O)OC(CC(C)C1=C2C[C@H](O)C3[C@@]4(C)CCC(=O)C(C)(C)C4CC[C@]3(C)[C@@]2(C)CC1)C1OC1(C)C (stereo partly drawn) [Alisol B 23-acetate] (compound dose: 10 uM)"
quantitative_readout = 1.05

[[record]]
compound = "CC1=CC[C@@H](C(C)(C)O)CC1 [α-Terpineol] (compound dose: 10 uM)"
quantitative_readout = 1.02

[[record]]
compound = "O=C(/C=C/c1ccc(O)c(O)c1)O[C@H](Cc1ccc(O)c(O)c1)C(=O)O [Rosmarinic acid] (compound dose: 10 uM)"
quantitative_readout = 1.11


###

test system: MDA-MB-231; assay: cell viability relative to vehicle unstimulated control (fraction); higher = more viable cells; settings: pre-treatment time: 18 h then 24 h IFNg/TNF
Recorded cell viability by entry
PROPERTY_NAME: cell viability

[[record]]
compound = "CC(C)C1=CC(=O)C(C)(C2C(O)CC3(C)C4CC=C5C(CCC(OC6OC(CO)C(O)C(O)C6OC6OC(C)C(O)C(O)C6O)C5(C)C)C4(C)C(=O)CC23C)O1 (stereo not drawn) [Picfeltarraenin IB] (compound dose: 10 uM)"
property_name = "cell viability"
quantitative_readout = 1.02

[[record]]
compound = "C=C1C(=O)[C@@]23[C@@H]4OC5O[C@@]2(O)[C@@H](O)[C@@H]2C(C)(C)CC[C@@H](O)[C@]52[C@@H]3CC[C@@H]14 [Ponicidin] (compound dose: 10 uM)"
property_name = "cell viability"
quantitative_readout = 0.9

[[record]]
compound = "O=c1cc(-c2ccc(O)cc2)oc2cc(O)cc(O)c12 [Apigenin] (compound dose: 10 uM)"
property_name = "cell viability"
quantitative_readout = 0.96

[[record]]
compound = "C=C1C[C@@]23CC[C@H]4[C@@](C)(CCC[C@@]4(C)C(=O)O[C@@H]4O[C@H](CO)[C@@H](O)[C@H](O)[C@H]4O[C@@H]4O[C@H](CO)[C@@H](O)[C@H](O)[C@H]4O)[C@@H]2CC[C@]1(O[C@@H]1O[C@H](CO)[C@@H](O)[C@H](O[C@@H]2O[C@H](CO)[C@@H](O)[C@H](O)[C@H]2O)[C@H]1O[C@@H]1O[C@H](CO)[C@@H](O)[C@H](O)[C@H]1O)C3 [Rebaudioside D] (compound dose: 10 uM)"
property_name = "cell viability"
quantitative_readout = 0.931

[[record]]
compound = "CC(CC(=O)C[C@@H](C)[C@H]1CC(=O)[C@@]2(C)C3=C(C(=O)C[C@]12C)[C@@]1(C)CC[C@H](O)C(C)(C)[C@@H]1C[C@@H]3O)C(=O)O (stereo partly drawn) [Ganoderic acid B] (compound dose: 10 uM)"
property_name = "cell viability"
quantitative_readout = 0.95

[[record]]
compound = "CC(C)=CCC[C@](C)(O[C@@H]1O[C@H](CO[C@@H]2O[C@@H](CO)[C@H](O)[C@H]2O)[C@@H](O)[C@H](O)[C@H]1O)[C@H]1CC[C@]2(C)[C@@H]1[C@H](O)C[C@@H]1[C@@]3(C)CC[C@H](O[C@@H]4O[C@H](CO)[C@@H](O)[C@H](O)[C@H]4O[C@@H]4O[C@H](CO)[C@@H](O)[C@H](O)[C@H]4O)C(C)(C)[C@@H]3CC[C@]12C [Ginsenoside Rc] (compound dose: 10 uM)"
property_name = "cell viability"
quantitative_readout = 0.95

[[record]]
compound = "COC(=O)C1=CO[C@@H](O[C@@H]2O[C@H](CO)[C@@H](O)[C@H](O)[C@H]2O)[C@@H]2[C@@H](C)CC(=O)[C@]12O [Hastatoside] (compound dose: 10 uM)"
property_name = "cell viability"
quantitative_readout = 0.981

[[record]]
compound = "C=C(C)[C@@H]1CC[C@]2(C=O)CC[C@]3(C)[C@H](CC[C@@H]4[C@@]5(C)CC[C@H](O)C(C)(C)[C@@H]5CC[C@]43C)[C@@H]12 [Betulinaldehyde] (compound dose: 10 uM)"
property_name = "cell viability"
quantitative_readout = 1.01

[[record]]
compound = "C[C@@H]1CC[C@]2(C(=O)O[C@@H]3O[C@H](CO)[C@@H](O)[C@H](O)[C@H]3O)CC[C@]3(C)C(=CC[C@@H]4[C@@]5(C)CC[C@H](O)[C@](C)(C(=O)O)[C@@H]5CC[C@]43C)[C@@H]2[C@]1(C)O [Ilexsaponin A] (compound dose: 10 uM)"
property_name = "cell viability"
quantitative_readout = 1.02

[[record]]
compound = "C=C1C(=O)O[C@@H]2C[C@@]3(C)CCC[C@H](C)C3=C[C@H]12 [Alantolactone] (compound dose: 10 uM)"
property_name = "cell viability"
quantitative_readout = 0.909

[[record]]
compound = "C=C1C(=O)O[C@H]2C1CC[C@@](C)(O)C13C=CC(C)(C21)C1(C3)C(=O)O[C@@H]2C3C(C)=CCC3[C@](C)(O)[C@H](OC(C)=O)CC21 (stereo partly drawn) [Handelin] (compound dose: 10 uM)"
property_name = "cell viability"
quantitative_readout = 0.83

[[record]]
compound = "C[C@@H]1C[C@@H]2O[C@@]3(O[C@@H]2C(C)(C)O)[C@H](O)[C@@]2(C)[C@@H]4CC[C@H]5C(C)(C)[C@@H](O)CC[C@@]56C[C@@]46CC[C@]2(C)[C@@H]13 [Cimigenol] (compound dose: 10 uM)"
property_name = "cell viability"
quantitative_readout = 1.03

[[record]]
compound = "C=C[C@H]1[C@H](O[C@@H]2O[C@H](CO)[C@@H](O)[C@H](O)[C@H]2O)OC=C2C(=O)OCC[C@]21O [Swertiamarin] (compound dose: 10 uM)"
property_name = "cell viability"
quantitative_readout = 0.956

[[record]]
compound = "C=CC(=C)CCC=C(C)C [Myrcene] (compound dose: 10 uM)"
property_name = "cell viability"
quantitative_readout = 1.02

[[record]]
compound = "CC1(C)CC[C@]2(C(=O)O[C@@H]3O[C@H](CO[C@@H]4O[C@H](CO)[C@@H](O)[C@H](O)[C@H]4O)[C@@H](O)[C@H](O)[C@H]3O)CC[C@]3(C)C(=CC[C@@H]4[C@@]5(C)CC[C@H](O[C@@H]6OC[C@H](O)[C@H](O)[C@H]6O)[C@@](C)(CO)[C@@H]5CC[C@]43C)[C@@H]2C1 [Asperosaponin VI] (compound dose: 10 uM)"
property_name = "cell viability"
quantitative_readout = 0.988

[[record]]
compound = "COC(=O)C1=CO[C@@H](O[C@@H]2O[C@H](CO)[C@@H](O)[C@H](O)[C@H]2O)[C@@H]2[C@@H](C)[C@@H](O)C[C@H]12 [Loganin] (compound dose: 10 uM)"
property_name = "cell viability"
quantitative_readout = 1.05

[[record]]
compound = "CC1=CC[C@@H](C(C)(C)O)CC1 [(-)-α-Terpineol] (compound dose: 10 uM)"
property_name = "cell viability"
quantitative_readout = 1.07

[[record]]
compound = "CC(=O)c1c[nH]c2ccccc12 [3-acetylindol] (compound dose: 10 uM)"
property_name = "cell viability"
quantitative_readout = 0.955


###

system: MDA-MB-231; assay: kynurenine production, fold change vs DMSO IFNg/TNF control; higher = more kynurenine produced (less inhibition); conditions: pre-treatment time: 18 h then 24 h IFNg/TNF
Use 0.9 as the dividing line for kynurenine production, with the line itself on the TRUE side and lower values as FALSE.

[[record]]
molecule = "CC(C)=CCC[C@](C)(O[C@@H]1O[C@H](CO)[C@@H](O)[C@H](O)[C@H]1O)[C@H]1CC[C@]2(C)[C@@H]1[C@H](O)C[C@@H]1[C@@]3(C)CC[C@H](O[C@@H]4O[C@H](CO)[C@@H](O)[C@H](O)[C@H]4O)C(C)(C)[C@@H]3CC[C@]12C [Ginsenoside F2] (compound dose: 10 uM)"
tested_system = "MDA-MB-231"
label_class = "FALSE"

[[record]]
molecule = "O=C(O)c1cncc(C(=O)O)c1 [3-5-pyridinedicarboxylic acid] (compound dose: 10 uM)"
tested_system = "MDA-MB-231"
label_class = "TRUE"

[[record]]
molecule = "C[C@@H]1O[C@@H](O[C@H]2[C@H](Oc3cc(O)c4c(c3)O[C@H](c3ccc(O)cc3)CC4=O)O[C@H](CO)[C@@H](O)[C@@H]2O)[C@H](O)[C@H](O)[C@H]1O [Naringin] (compound dose: 10 uM)"
tested_system = "MDA-MB-231"
label_class = "TRUE"

[[record]]
molecule = "C=C1[C@H](OC(=O)/C=C(\\C)CC)C[C@@H](C(C)C)[C@@H]2[C@@H]([C@@H](C)OC(C)=O)C(=O)C[C@@H]12 [Tussilagone] (compound dose: 10 uM)"
tested_system = "MDA-MB-231"
label_class = "TRUE"

[[record]]
molecule = "CC(CC(=O)C[C@@H](C)[C@H]1CC(=O)[C@@]2(C)C3=C(C(=O)C[C@]12C)[C@@]1(C)CCC(=O)C(C)(C)[C@@H]1C[C@@H]3O)C(=O)O (some centres not stated) [Ganoderic acid D] (compound dose: 10 uM)"
tested_system = "MDA-MB-231"
label_class = "FALSE"

[[record]]
molecule = "C[C@H]1[C@H](C)CC[C@]2(C(=O)O)CC[C@]3(C)C(=CC[C@@H]4[C@@]5(C)C[C@@H](O)[C@H](O)C(C)(C)[C@@H]5CC[C@]43C)[C@H]12 [Corosolic acid] (compound dose: 10 uM)"
tested_system = "MDA-MB-231"
label_class = "TRUE"

[[record]]
molecule = "C=C1C=CC(C(C)C)CC1 (stereo not drawn) [β-Phellandrene] (compound dose: 10 uM)"
tested_system = "MDA-MB-231"
label_class = "FALSE"

[[record]]
molecule = "CO[C@H]1O[C@@H]2O[C@@]3(C)CC[C@H]4[C@H](C)CC[C@@H]([C@H]1C)[C@@]24OO3 [Artemether] (compound dose: 10 uM)"
tested_system = "MDA-MB-231"
label_class = "FALSE"

[[record]]
molecule = "C=C(C)[C@@H]1CC[C@]2(C(=O)O[C@@H]3O[C@H](CO[C@@H]4O[C@H](CO)[C@@H](O[C@@H]5O[C@@H](C)[C@H](O)[C@@H](O)[C@H]5O)[C@H](O)[C@H]4O)[C@@H](O)[C@H](O)[C@H]3O)CC[C@]3(C)[C@H](CC[C@@H]4[C@@]5(C)CC[C@H](O[C@@H]6OC[C@H](O)[C@H](O)[C@H]6O[C@@H]6O[C@@H](C)[C@H](O)[C@@H](O)[C@H]6O)[C@@](C)(CO)[C@@H]5CC[C@]43C)[C@@H]12 [Pulchinenoside C] (compound dose: 10 uM)"
tested_system = "MDA-MB-231"
label_class = "TRUE"

[[record]]
molecule = "CC(C)=CCC[C@@](C)(O)[C@H]1CC[C@]2(C)[C@@H]1[C@H](O)C[C@@H]1[C@@]3(C)C[C@@H](O)[C@H](O[C@@H]4O[C@H](CO)[C@@H](O)[C@H](O)[C@H]4O[C@@H]4O[C@H](CO)[C@@H](O)[C@H](O)[C@H]4O)C(C)(C)[C@@H]3CC[C@]12C [Gypenoside LI] (compound dose: 10 uM)"
tested_system = "MDA-MB-231"
label_class = "FALSE"

[[record]]
molecule = "C[C@H]1O[C@@H](O[C@H]2[C@@H](O)C[C@H](O[C@H]3[C@@H](O)C[C@H](O[C@H]4CC[C@@]5(C)[C@H](CC[C@@H]6[C@@H]5CC[C@]5(C)[C@@H](C7=CC(=O)OC7)CC[C@]65O)C4)O[C@@H]3C)O[C@@H]2C)C[C@H](O)[C@@H]1O [Digitoxin] (compound dose: 10 uM)"
tested_system = "MDA-MB-231"
label_class = "TRUE"

[[record]]
molecule = "C[C@H](CC[C@@H](O[C@@H]1O[C@H](CO[C@@H]2O[C@H](CO)[C@@H](O)[C@H](O)[C@H]2O)[C@@H](O)[C@H](O)[C@H]1O)C(C)(C)O)[C@H]1CC[C@@]2(C)[C@@H]3CC=C4[C@@H](CC[C@H](O[C@@H]5O[C@H](CO)[C@@H](O)[C@H](O)[C@H]5O)C4(C)C)[C@]3(C)[C@H](O)C[C@]12C [Mogroside III] (compound dose: 10 uM)"
tested_system = "MDA-MB-231"
label_class = "TRUE"

[[record]]
molecule = "CSC(=O)OCC1=C[C@H](O)[C@H]2C(C(=O)O)=CO[C@@H](O[C@@H]3O[C@@H](CO)[C@@H](O)[C@@H](O)[C@H]3O)[C@H]12 [Paederosidic acid] (compound dose: 10 uM)"
tested_system = "MDA-MB-231"
label_class = "TRUE"

[[record]]
molecule = "CC1(C)CC[C@]2(CO)CC[C@]3(C)C(=CC[C@@H]4[C@@]5(C)CC[C@H](O)C(C)(C)[C@@H]5CC[C@]43C)[C@@H]2C1 [Erythrodiol] (compound dose: 10 uM)"
tested_system = "MDA-MB-231"
label_class = "FALSE"

